Where do these numbers come from? They come from PubChem BioAssay (NCI).

# Tested on: 786-0 renal
# ASSAY NOTES: NCI tumour cell line growth inhibition, 48 h
The entries below are paired with their reported TGI.
OBSERVATION TYPE: TGI

> print(dat)
                                    compound  observation.type  data.value
 1  COc1ccc(-c2nc(-c3nc4ccc(F)cc4[nH]3)cc3c2[nH]c2ccccc23)cc1               TGI    > 100 µM
 2  O=c1/c(=C/c2cccc3ccccc23)sc2nc3ccccc3n12               TGI    > 100 µM
 3  CC(C)CN1CN(c2ccccc2)C2(CCN(CC(C)(c3ccc(F)cc3)C3OCCO3)CC2)C1=O (stereo not drawn)               TGI     12.1 µM
 4  Cc1ccc(NS(=O)(=O)c2ccc(-c3cnc(C4CC4)o3)cc2)cc1               TGI       21 µM
 5       O=C(c1ccccc1)c1ccc(-c2ccc(O)cc2)cc1               TGI   > 66.8 µM
 6   COc1ccc(-n2sc3ncc(-c4ccccc4)cc3c2=O)cc1               TGI     39.3 µM
 7  CCOC(=O)C(NCc1ccccc1)(NC(=O)c1ccccc1)C(F)(F)F (stereo not drawn)               TGI    > 100 µM
 8  CC1C(c2ccc(N(C)C)cc2)c2cc3c(cc2OC1N1CCCC1)OCO3 (stereo not drawn)               TGI    > 100 µM
 9  CCCCCCC1CCC2CCCC(C)N12 (stereo not drawn)               TGI    > 100 µM
10  CCCCOC1CC2(c3ccc(OC)cc3)C(=O)c3ccccc3N2O1 (stereo not drawn)               TGI    > 100 µM
11  O=S(=O)(c1cccc(C(F)(F)F)c1)N1c2ccccc2-n2cccc2C1c1cccnc1 (stereo not drawn)               TGI   > 62.3 µM
12  Fc1cccc(F)c1C1SCC2=Nc3ccccc3CN21 (stereo not drawn)               TGI    > 100 µM
13         O=C(O)CSc1n[nH]c(/C=C/c2ccccc2)n1               TGI    > 100 µM
14  CC(C)(C)c1nc2c(o1)C(=Nc1ccccc1)c1ccccc1C2=O               TGI     64.3 µM
15  N#Cc1c(-c2ccco2)c2c(n(C3OC(CO)C(O)C(O)C3O)c1=S)CCCC2 (stereo not drawn)               TGI    > 100 µM
16  CS(=O)(=O)c1nccc(-c2c(-c3cccc(OCc4ccc(F)cc4)c3)nc3sccn23)n1               TGI    > 100 µM
17  O=S(=O)(Nc1ccc(-c2nc(-c3cccc(OCCN4CCOCC4)c3)c(-c3ccnc(Br)c3)[nH]2)cc1)c1ccccc1               TGI     7.96 µM
18      CO/N=C(\c1ccccc1)c1cnn(-c2ccccc2)c1N               TGI     > 25 µM
